Measured IC50, listed per entry.
molecular target: mouse VISTA (mVISTA) (Mus musculus); construct: expressed in transfected cells; host or cells: Human embryonic kidney 293T cells; assay: Cell-Based Binding High-Content Assay For mVISTA (HC CBA mVISTA); settings: cell-based binding high-content assay, mVISTA; the 16th table; read-out: HC CBA mVISTA IC50
Sequence (Q9D659 33-308): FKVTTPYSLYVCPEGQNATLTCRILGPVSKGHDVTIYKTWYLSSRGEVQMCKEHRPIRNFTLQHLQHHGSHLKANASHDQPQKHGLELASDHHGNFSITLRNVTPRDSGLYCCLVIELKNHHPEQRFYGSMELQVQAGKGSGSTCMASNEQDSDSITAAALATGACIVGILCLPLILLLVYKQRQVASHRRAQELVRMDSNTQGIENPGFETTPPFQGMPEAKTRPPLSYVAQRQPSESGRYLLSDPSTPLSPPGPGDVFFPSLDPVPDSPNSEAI
Positions of bridges follow the written chain, without caps; N, C: chain ends. Non-standard residues stand in square brackets, D forms with d. Residues, ends and D or L forms follow the SMILES beside them. 2Nal = N[C@@H](Cc1ccc2ccccc2c1)C(=O)O; Cit = NC(=O)NCCC[C@H](N)C(=O)O; Ahp(2) = CCCCC[C@H](N)C(=O)O; NMeNle = CCCC[C@H](NC)C(=O)O; NHexGly = CCCCCCNCC(=O)O; Nle = CCCC[C@H](N)C(=O)O; Orn = NCCC[C@H](N)C(=O)O
Remember to quote the unit after the number.

Use the examples below as a reference point.
{"columns": ["Molecule", "Tested system", "Observable", "Result"],
 "data": [
  ["CCCCCCN1CC(=O)N[C@@H](Cc2ccc(O)cc2)C(=O)N[C@@H](C(C)C)C(=O)NCC(=O)N[C@@H](CCCNC(N)=O)C(=O)N[C@@H](CC(C)C)C(=O)N[C@@H](CCCCC)C(=O)N2CCC[C@H]2C(=O)N[C@@H](C(C)C)C(=O)N[C@@H](CC(=O)O)C(=O)N[C@H](C(=O)N[C@@H](CO)C(N)=O)CSCC(=O)N[C@@H](Cc2ccc3ccccc3c2)C(=O)N[C@@H](Cc2ccc(O)cc2)C(=O)N[C@@H](CC(=O)O)C1=O [Ex 1316] ({CH2CO}-[2Nal]YD[NHexGly]YVG[Cit]L[Ahp(2)]PVDCS-NH2; thioether N-14)", "mouse VISTA (mVISTA) (Mus musculus)", "IC50", "0.0106 µM"],
  ["CCCCCCN1CC(=O)N[C@@H](Cc2ccc(O)cc2)C(=O)N[C@@H](CCCC)C(=O)N[C@@H](CC(=O)O)C(=O)N[C@@H](CCCN)C(=O)N(C)[C@@H](CCCC)C(=O)N[C@@H](CCCCC)C(=O)N2CCC[C@H]2C(=O)N[C@@H](C(C)C)C(=O)N[C@@H](CC(=O)O)C(=O)N[C@H](C(=O)N[C@@H](CO)C(N)=O)CSCC(=O)N[C@@H](Cc2ccc3ccccc3c2)C(=O)N[C@@H](Cc2ccc(O)cc2)C(=O)N[C@@H](CC(=O)O)C1=O [Ex 1320] ({CH2CO}-[2Nal]YD[NHexGly]Y[Nle]D[Orn][NMeNle][Ahp(2)]PVDCS-NH2; thioether N-14)", "mouse VISTA (mVISTA) (Mus musculus)", "IC50", "0.0213 µM"],
  ["CCCCCCN1CC(=O)N[C@@H](Cc2ccc(O)cc2)C(=O)N[C@@H](CC(C)C)C(=O)NCC(=O)N[C@@H](CCCNC(=N)N)C(=O)N[C@@H](CC(C)C)C(=O)N[C@@H](CCCCC)C(=O)N2CCC[C@H]2C(=O)N[C@@H](C(C)C)C(=O)N[C@@H](CC(=O)O)C(=O)N[C@H](C(=O)NCC(N)=O)CSCC(=O)N[C@@H](Cc2ccc3ccccc3c2)C(=O)N[C@@H](Cc2ccc(O)cc2)C(=O)N[C@@H](CC(=O)O)C1=O [Ex 1281] ({CH2CO}-[2Nal]YD[NHexGly]YLGRL[Ahp(2)]PVDCG-NH2; thioether N-14)", "mouse VISTA (mVISTA) (Mus musculus)", "IC50", "0.0229 µM"]
]}

Consider the molecule CCCCCCN1CC(=O)N[C@@H](Cc2ccc(O)cc2)C(=O)N[C@@H](CC(C)C)C(=O)NCC(=O)N[C@@H](CCCNC(=N)N)C(=O)N[C@@H](CC(C)C)C(=O)N[C@@H](CCCCC)C(=O)N2CCC[C@H]2C(=O)N[C@@H](C(C)C)C(=O)N[C@@H](CCC(=O)O)C(=O)N[C@H](C(=O)NCC(N)=O)CSCC(=O)N[C@@H](Cc2ccc3ccccc3c2)C(=O)N[C@@H](Cc2ccc(O)cc2)C(=O)N[C@@H](CC(=O)O)C1=O [Ex 1286] ({CH2CO}-[2Nal]YD[NHexGly]YLGRL[Ahp(2)]PVECG-NH2; thioether N-14) and give its measured IC50.
0.0392 µM
